Reference source for all entries: ChEMBL document CHEMBL1201862

system: NCI-H522; assay: NCI tumour cell line growth inhibition, 48 h
Active and inactive are the calls of the source. Rule as the data show it: active = GI50 up to about 1.1 µM and inactive = higher.
Outcome codes: active, inactive

>  <compound>
O=C1CC(c2ccc(Cl)cc2)=Nc2ccccc2N1

>  <cat>
inactive

$$$$
>  <compound>
COc1ccc2nc3cc(Cl)ccc3c(Sc3ccc(NC(C)=O)cc3)c2c1

>  <cat>
inactive

$$$$
>  <compound>
N[C@@H](CCC(=O)NC(Cc1ccccc1)C(=O)NCP(=O)(O)O)C(=O)O (some centres undefined)

>  <cat>
inactive

$$$$
>  <compound>
Oc1ccc(Br)cc1/C=N/c1cccc(C(F)(F)F)c1

>  <cat>
inactive

$$$$
>  <compound>
C=CC(=C)CCC(Br)C(C)(C)Cl (centres undefined)

>  <cat>
inactive

$$$$
>  <compound>
CC(=O)NCc1nc(C#N)c(N)o1

>  <cat>
inactive

$$$$
>  <compound>
Cc1cc(-c2c(Br)cc(C(=O)O)n2C)on1

>  <cat>
inactive

$$$$
>  <compound>
COC(=O)N1CC[C@@H]2CCC=C(c3cccc4c3OCO4)[C@@H]21

>  <cat>
inactive

$$$$
>  <compound>
CC(C)OC1OC(CO)C(O)CC1n1cc(F)c(=O)[nH]c1=O (centres undefined)

>  <cat>
inactive

$$$$
>  <compound>
COc1ccccc1C1ON=C(c2ccc([N+](=O)[O-])cc2)N1C12CC3CC(CC(C3)C1)C2 (centres undefined)

>  <cat>
inactive

$$$$
>  <compound>
C=CC[C@H](N=C(SC)SC)C(=O)N1C(=O)N(C)[C@@H](C)[C@H]1c1ccccc1

>  <cat>
inactive

$$$$
>  <compound>
CCOC(=O)[C@@H]1C2C(=C[C@H]3[C@H]1C(=O)N1CCCC[C@H]31)CCCN2C(=O)OCc1ccccc1 (some centres undefined)

>  <cat>
inactive

$$$$
>  <compound>
C[C@H]1SC(c2ccc(Cl)cc2Cl)N(NC(=O)c2ccncc2)C1=O (some centres undefined)

>  <cat>
inactive

$$$$
>  <compound>
COCc1nc2c(OC)c(-c3nc4ccc(N5CCN(C)CC5)nc4[nH]3)cc(OC)c2[nH]1

>  <cat>
inactive

$$$$
>  <compound>
Cc1sc2nc(-c3ccc([N+](=O)[O-])cc3)c(/C=N/N=C(N)N)n2c1C

>  <cat>
inactive

$$$$
>  <compound>
C[N+](C)(C)c1ccc(C(N)C(=O)O)cc1 (centres undefined)

>  <cat>
inactive

$$$$
>  <compound>
O=C(N/N=C\c1ccccc1)Nc1cccc2ccccc12

>  <cat>
inactive

$$$$
>  <compound>
CCOC(=O)Nc1cc2c(c(N)n1)N=C(c1ccc(OC)cc1)CN2

>  <cat>
active

$$$$
>  <compound>
S=C(Nc1ccc(Cl)cc1)SC1CCCCC1

>  <cat>
inactive

$$$$
>  <compound>
N#Cc1ccc(OCCSCCCCCCCCCCSCCOc2ccc(C#N)cc2)cc1

>  <cat>
inactive

$$$$
>  <compound>
Sc1ncnc2nc[nH]c12 [MERCAPTOPURINE ANHYDROUS]

>  <cat>
inactive

$$$$
>  <compound>
Cc1cc(OCc2nnc3n2N=C(c2cc(F)c(Cl)cc2Cl)/C(=C/c2ccc(-c4ccc(Cl)cc4)o2)S3)ccc1Cl

>  <cat>
inactive

$$$$
>  <compound>
O=C(CC(=O)C1CCOC1=O)C(=O)Nc1cccc(Cl)c1 (centres undefined)

>  <cat>
inactive

$$$$
>  <compound>
CC1=NN(C(=O)c2ccc(Cl)cc2)C(=O)/C1=C/c1ccccc1O

>  <cat>
inactive

$$$$
>  <compound>
C[N+]1=C(c2cccnc2/C=N/O)OCC1(C)C

>  <cat>
inactive

$$$$
>  <compound>
COC(=O)c1ccc(OCc2ccc3nc(-c4ccccc4)c(Cl)nc3c2)cc1

>  <cat>
inactive

$$$$
>  <compound>
COc1ccc(Nc2nc3ccccc3nc2-c2cccs2)cc1OC

>  <cat>
inactive

$$$$
>  <compound>
C=C1[C@@H](OC(C)=O)/C=C/C2C3C(=O)[C@@](C)(OC(C)=O)[C@H]([C@H](OC(C)=O)[C@]4(O)[C@@H](C)C(=O)O[C@H]4[C@H]1Cl)[C@@]23C (some centres undefined)

>  <cat>
inactive

$$$$
>  <compound>
CN(C)CCCNC(=O)c1cc(NS(=O)(=O)c2ccc3c(c2)C(=O)c2ccccc2C3=O)cn1C

>  <cat>
inactive

$$$$
>  <compound>
Nc1ncnc2c1cnn2Cc1cn(COCC(O)CO)nn1 (centres undefined)

>  <cat>
inactive

$$$$
>  <compound>
Cc1oc(N)c(S(=O)(=O)c2ccc(Cl)cc2)c1C

>  <cat>
inactive

$$$$
>  <compound>
COc1ccc(-c2nc3ccc(C)cc3o2)c(OC)c1

>  <cat>
inactive

$$$$
>  <compound>
CSC(SC)=C(C(=O)c1ccc(Cl)cc1)n1c(=O)sc2cc(Br)ccc21

>  <cat>
inactive

$$$$
>  <compound>
COC(=O)c1ccccc1NC(=O)C(=O)Cc1nc2c3c(ccc2nc1O)C(=O)c1ccccc1C3=O

>  <cat>
inactive

$$$$
>  <compound>
Cn1nc2c(c1N)Cc1c(nn(C)c1N)-c1ccccc1-2

>  <cat>
inactive

$$$$
>  <compound>
O=C(NC1CCN(Cc2ccccc2)CC1)c1ccccc1I

>  <cat>
inactive

$$$$
>  <compound>
CCCCCCCCC/C=C1\CCC(CN(C)C)C1=O (centres undefined)

>  <cat>
inactive

$$$$
>  <compound>
NS(=O)(=O)c1c(O)c2ccccc2oc1=O

>  <cat>
inactive

$$$$
>  <compound>
O=C1SC(SCc2ccccc2)=NC12CC2c1ccccc1 (centres undefined)

>  <cat>
inactive

$$$$
>  <compound>
O=C(CO[N+](=O)[O-])OC/C=C/c1ccccc1

>  <cat>
inactive

$$$$
>  <compound>
OCC(O)C(Cl)CCl (centres undefined)

>  <cat>
inactive

$$$$
>  <compound>
O=C(O)c1ccc(Oc2nc3ccccc3s2)cc1

>  <cat>
inactive

$$$$
>  <compound>
Nc1nc(O)nc2sc3c(c12)CCCC3

>  <cat>
inactive

$$$$
>  <compound>
COc1ccc2c(c1)OCC1Cc3cc4c(cc3OC21)OCO4 (centres undefined)

>  <cat>
inactive

$$$$
